- system.tested: 14-3-3 protein gamma (Homo sapiens) (UniProt P61981)
- Sequence (P61981 whole entry, looked up): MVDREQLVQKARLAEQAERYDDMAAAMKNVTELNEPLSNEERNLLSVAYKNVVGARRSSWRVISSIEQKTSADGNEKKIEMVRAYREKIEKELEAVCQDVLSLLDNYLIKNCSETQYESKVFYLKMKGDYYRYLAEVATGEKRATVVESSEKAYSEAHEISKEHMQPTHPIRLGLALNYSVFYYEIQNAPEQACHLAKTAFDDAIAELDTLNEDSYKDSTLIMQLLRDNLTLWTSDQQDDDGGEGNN
- experimental.protocol: modulators of 14-3-3 gamma protein binding, primary screen, biochemical, fluorescence polarization (AID 422);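 also: 0% = protein plus tracer without compound and 100% = blank with tracer alone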
- assay.setup: FP, 14-3-3gamma / TMR-pS259-Raf peptide binding; at 40 µM; hits give high values
In all, about 160,000 compounds went through this assay and about 310 (0.19%) were called active. For the sample, actives were picked, then their nearest neighbours and some compounds at random.
outcome.measure: inhibition (%)

[[record]]
compound = "Cc1cc(OCC(=O)Nc2ncc(S(=O)(=O)c3ccc([N+](=O)[O-])cc3)s2)cc(C)c1Cl"
outcome_measure = "inhibition"
quantitative_result = -4.64

[[record]]
compound = "CC1CC(C)CN(C(=O)c2cc3c(=O)oc4ccccc4c3s2)C1 (stereo not drawn)"
outcome_measure = "inhibition"
quantitative_result = -6.3

[[record]]
compound = "CC(=O)CCC=C(C)CCC=C(C)C"
outcome_measure = "inhibition"
quantitative_result = -6.82

[[record]]
compound = "COc1ccc([N+](=O)[O-])cc1NC(=O)c1c([N+](=O)[O-])cnn1C"
outcome_measure = "inhibition"
quantitative_result = -2.94

[[record]]
compound = "Cc1cc(N2CC(C)CC(C)C2)nc2ccc([N+](=O)[O-])cc12 (stereo not drawn)"
outcome_measure = "inhibition"
quantitative_result = -9.05

[[record]]
compound = "O=C(Nc1nc2ccccc2n1CCOc1ccccc1)c1cccs1"
outcome_measure = "inhibition"
quantitative_result = 8.38

[[record]]
compound = "CSc1nnc2c(n1)OC(c1ccccc1Cl)Nc1ccccc1-2 (stereo not drawn)"
outcome_measure = "inhibition"
quantitative_result = 31.9

[[record]]
compound = "COc1ccc(-n2ncc3c(N4CCc5ccccc54)ncnc32)cc1"
outcome_measure = "inhibition"
quantitative_result = -7.74

[[record]]
compound = "COc1ncnc2c1N=C1CC(C)(C)CC(N)=C1S2"
outcome_measure = "inhibition"
quantitative_result = 56.3

[[record]]
compound = "CN1C(=O)c2cccc3c(N)ccc(c23)C1=O"
outcome_measure = "inhibition"
quantitative_result = 85.5

[[record]]
compound = "CCCCCc1ccc(S(=O)(=O)Nc2cnc3ccccc3c2)cc1"
outcome_measure = "inhibition"
quantitative_result = 0.52

[[record]]
compound = "c1ccc2[nH]c(-c3nc4ccccc4[nH]3)nc2c1"
outcome_measure = "inhibition"
quantitative_result = -4.13

[[record]]
compound = "CCOC(=O)c1ccc(N2C(=O)C3CCCCC3C2=O)cc1 (stereo not drawn)"
outcome_measure = "inhibition"
quantitative_result = -3.67

[[record]]
compound = "CSc1ccc(-c2nc3ccc(Cl)cn3c2Nc2ccc3c(c2)OCO3)cc1"
outcome_measure = "inhibition"
quantitative_result = -19

[[record]]
compound = "CCc1ccc(OCCSc2nc3ccccc3c(=O)[nH]2)cc1"
outcome_measure = "inhibition"
quantitative_result = -1.81

[[record]]
compound = "COc1ccc(CNCC2OCCc3ccccc32)cc1OC (stereo not drawn)"
outcome_measure = "inhibition"
quantitative_result = -5.29

[[record]]
compound = "Cc1ccccc1N=Cc1cccc([N+](=O)[O-])c1O"
outcome_measure = "inhibition"
quantitative_result = 5.41

[[record]]
compound = "Nc1ccc2c3c(cccc13)C(=O)NC2=O"
outcome_measure = "inhibition"
quantitative_result = 14.8

[[record]]
compound = "COc1ccc(C2C=C(c3ccc(OC(F)F)cc3)Nc3ncnn32)cc1 (stereo not drawn)"
outcome_measure = "inhibition"
quantitative_result = 4.5

[[record]]
compound = "CCOC(=O)c1cc2c(=O)n3ccccc3nc2n(CCCOC)c1=NC(=O)c1cccc(Br)c1"
outcome_measure = "inhibition"
quantitative_result = 0.86

[[record]]
compound = "Cc1ccc(-c2cc(C(=O)OCC(C)C)c3cc(C)ccc3n2)cc1"
outcome_measure = "inhibition"
quantitative_result = 3.92

[[record]]
compound = "CCCC(=O)N(c1ccc2oc(C)c(C(=O)OC)c2c1)S(=O)(=O)c1cc([N+](=O)[O-])ccc1C"
outcome_measure = "inhibition"
quantitative_result = -23.1

[[record]]
compound = "O=C(O)c1ccc(N2NC(c3ccccc3)=CC2O)cc1 (stereo not drawn)"
outcome_measure = "inhibition"
quantitative_result = -4.41


* * *

- system.tested: 14-3-3 protein gamma (Homo sapiens) (UniProt P61981)
- experimental.protocol: modulators of 14-3-3 gamma protein binding, primary screen, biochemical, fluorescence polarization (AID 422);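 also: 0% = protein plus tracer without compound and 100% = blank with tracer alone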
- assay.setup: FP, 14-3-3gamma / TMR-pS259-Raf peptide binding; at 40 µM; hits give high values
Among all 160,000 compounds or so, about 310 (0.19%) were called active. The entries come from a sample that favours actives as a whole.
Measured inhibition values are reported for all entries that follow.
outcome.measure: inhibition (%)

[[record]]
compound = "COC(=O)C1=C(C)NC2=C(C(=O)CC(c3ccccc3Cl)C2)C1c1ccc2c(c1)OCO2 (stereo unspecified)"
quantitative_result = -2.26

[[record]]
compound = "CCCCNC(=O)C1c2ccccc2C(=O)N(C)C1c1c[nH]c2ccccc12 (stereo unspecified)"
quantitative_result = -0.96

[[record]]
compound = "COc1cc(C2Nc3ccccc3NC3=C2C(=O)CC(c2ccccc2Cl)C3)cc(Cl)c1O (stereo unspecified)"
quantitative_result = -12.8

[[record]]
compound = "O=C(NCc1ccco1)c1ccc2c(=O)n(Cc3ccc(Cl)cc3)c(=S)[nH]c2c1"
quantitative_result = -14.3

[[record]]
compound = "CCCCc1nc(N)c(C#N)c(-c2ccccc2Cl)c1CCC"
quantitative_result = -5.82

[[record]]
compound = "Cc1ccc2c(=O)c(CN3CCOCC3)c(C)[nH]c2c1C"
quantitative_result = -4.4

[[record]]
compound = "Cc1cc(OCC(=O)Nc2sc3c(c2C(N)=O)CCCC3)ccc1[N+](=O)[O-]"
quantitative_result = -9.64

[[record]]
compound = "O=C(Nc1nc(-c2cccs2)cs1)c1ccc(S(=O)(=O)N2CCc3ccccc3C2)cc1"
quantitative_result = -43.5

[[record]]
compound = "O=C(Nc1ccccc1C(F)(F)F)c1ccc(SC2CCCCC2)c([N+](=O)[O-])c1"
quantitative_result = -3.43

[[record]]
compound = "CCc1ccc2oc(-c3cc(NC(=O)c4ccc(OC)cc4)ccc3Cl)nc2c1"
quantitative_result = -44.5

[[record]]
compound = "CCC(C)Nc1ncnc2c1cnn2-c1cccc(C)c1 (stereo unspecified)"
quantitative_result = 2.9

[[record]]
compound = "COc1ccc(C2C=C(c3ccc(-c4ccccc4)cc3)Nc3ncnn32)cc1 (stereo unspecified)"
quantitative_result = -7.71

[[record]]
compound = "COc1ccc(NC(=O)c2cc([N+](=O)[O-])ccc2Cl)cc1OC"
quantitative_result = -12.3

[[record]]
compound = "O=C(CC1Sc2ccccc2NC1=O)NCCCSC1CCCCC1 (stereo unspecified)"
quantitative_result = 5.8

[[record]]
compound = "O=C(NCCC1=CCCCC1)c1ccc2c(=O)n(Cc3cccc(Br)c3)c(=S)[nH]c2c1"
quantitative_result = -9.75

[[record]]
compound = "CCOCCn1cnc2sc(C(=O)N3CCN(c4ccccn4)CC3)c(C)c2c1=O"
quantitative_result = 1.28

[[record]]
compound = "Clc1ccc2nc(-c3ccsc3)c(NC3CCCCC3)n2c1"
quantitative_result = 1.17

[[record]]
compound = "CCOc1ccc(S(=O)(=O)N2CCC(C)CC2)c2ccccc12"
quantitative_result = -10.1

[[record]]
compound = "CN1C(=O)NC(c2cccc(Cl)c2)C2=C1CCCC2=O (stereo unspecified)"
quantitative_result = 2.47

[[record]]
compound = "CCC(=O)N1CCc2cc(S(=O)(=O)CCC(=O)N3CCN(c4cccc(OC)c4)CC3)ccc21"
quantitative_result = 3.36

[[record]]
compound = "Cc1ccc(-c2nc3ccccc3c(C(=O)O)c2C)s1"
quantitative_result = -5.29

[[record]]
compound = "CCSCCOC(=O)C1=C(C)NC(=O)NC1c1ccc(OC)cc1 (stereo unspecified)"
quantitative_result = -1.92

[[record]]
compound = "O=C(O)c1c[nH]c2ccc(S(=O)(=O)N3CCN(c4cccc(Cl)c4)CC3)cc2c1=O"
quantitative_result = -20.1

[[record]]
compound = "CN1C(=O)c2ccccc2C(C(=O)N2CCC(Cc3ccccc3)CC2)C1c1c[nH]c2ccccc12 (stereo unspecified)"
quantitative_result = 6.73

[[record]]
compound = "CCOC(=O)c1sc2ncnc(N3CCCC(C(=O)OCC)C3)c2c1C (stereo unspecified)"
quantitative_result = -2.94

[[record]]
compound = "O=C(Nc1ccc(-c2nc3ccc(NC(=O)c4ccc(Br)o4)cc3[nH]2)cc1)c1ccc(Br)o1"
quantitative_result = -23.6

